Values were extracted from paper PMC6745485.

Target: rat PXR (Rattus norvegicus, UniProt Q9R1A7)
Sequence (Q9R1A7 1-431): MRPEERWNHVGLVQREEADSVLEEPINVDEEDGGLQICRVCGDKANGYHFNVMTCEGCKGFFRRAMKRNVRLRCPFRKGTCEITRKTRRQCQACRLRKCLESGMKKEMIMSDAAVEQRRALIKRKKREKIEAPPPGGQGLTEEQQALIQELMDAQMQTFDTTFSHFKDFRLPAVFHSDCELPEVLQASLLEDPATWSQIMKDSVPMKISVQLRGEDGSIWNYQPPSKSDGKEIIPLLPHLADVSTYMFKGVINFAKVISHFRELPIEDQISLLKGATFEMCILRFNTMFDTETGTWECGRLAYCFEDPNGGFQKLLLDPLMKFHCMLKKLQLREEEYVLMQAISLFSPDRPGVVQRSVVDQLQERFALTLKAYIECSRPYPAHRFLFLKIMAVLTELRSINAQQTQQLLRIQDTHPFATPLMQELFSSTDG
Assay: Rat PXR reporter gene assay in COS-1 cells
Type: cell-based
Settings: up to 30 μM
measurement.name: PXR agonistic activity (in words)

1. O=Cc1cccc(Oc2ccccc2)c1 [PBAld, 3-phenoxybenzaldehyde] :: inactive
2. O=C(O)c1cccc(Oc2ccccc2)c1 [PBAcid, 3-phenoxybenzoic acid] :: inactive

----------
target: UniProt P37230; assay: Rat PPARα reporter gene assay in COS-1 cells; assay type: cell-based; conditions: concentration showing 20% of the agonistic activity of 30 μM BZF; ±SD
Sequence (P37230 whole entry): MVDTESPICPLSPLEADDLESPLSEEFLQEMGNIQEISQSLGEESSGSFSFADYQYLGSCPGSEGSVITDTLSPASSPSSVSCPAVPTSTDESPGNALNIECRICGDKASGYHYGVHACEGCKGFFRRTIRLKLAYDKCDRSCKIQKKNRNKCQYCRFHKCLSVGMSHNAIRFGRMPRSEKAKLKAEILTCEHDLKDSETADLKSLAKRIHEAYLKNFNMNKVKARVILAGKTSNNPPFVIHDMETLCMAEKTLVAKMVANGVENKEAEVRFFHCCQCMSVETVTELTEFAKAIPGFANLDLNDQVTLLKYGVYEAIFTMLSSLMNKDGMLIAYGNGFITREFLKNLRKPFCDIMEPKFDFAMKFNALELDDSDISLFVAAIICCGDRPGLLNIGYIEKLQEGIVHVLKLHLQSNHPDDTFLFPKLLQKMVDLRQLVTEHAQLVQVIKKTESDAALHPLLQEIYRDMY
measurement.name: Agonistic activity REC20 PPARα

1) CC(C)(Oc1ccc(CCNC(=O)c2ccc(Cl)cc2)cc1)C(=O)O [BZF, bezafibrate, reference compound] :: 3.68 ± 0.0944 µM

----------
Biological target: rat CAR (Rattus norvegicus)
Sequence (Q9QUS1 1-358): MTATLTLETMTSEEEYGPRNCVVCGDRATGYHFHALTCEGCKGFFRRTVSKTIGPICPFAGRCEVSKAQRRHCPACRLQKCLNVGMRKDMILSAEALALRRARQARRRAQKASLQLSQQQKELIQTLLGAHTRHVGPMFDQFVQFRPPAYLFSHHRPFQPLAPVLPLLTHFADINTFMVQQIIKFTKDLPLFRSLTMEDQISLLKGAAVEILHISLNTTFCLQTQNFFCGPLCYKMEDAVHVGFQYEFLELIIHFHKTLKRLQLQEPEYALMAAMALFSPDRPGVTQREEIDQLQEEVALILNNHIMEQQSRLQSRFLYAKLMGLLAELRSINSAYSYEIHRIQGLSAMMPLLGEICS
Assay: Rat CAR reporter gene assay in COS-1 cells
Format: cell-based
Details: concentration showing 20% of the agonistic activity of 30 μM artemisinin; ±SD
measurement.name: Agonistic activity REC20 CAR

1. C[C@@H]1CC[C@H]2[C@@H](C)C(=O)O[C@@H]3O[C@@]4(C)CC[C@@H]1[C@]32OO4 [artemisinin, reference compound] :: 2.53 ± 4.02 µM

----------
target: rat PXR (Rattus norvegicus); test: Rat PXR reporter gene assay in COS-1 cells; assay type: cell-based; details: concentration showing 20% of the agonistic activity of 1 μM PCN; ±SD
Doc: threshold 0.3 µM (exclusive). Items with Agonistic activity REC20 PXR beneath it return true (1); others return false (0).

1) CC1(C)[C@H](C(=O)OCc2cccc(Oc3ccccc3)c2)[C@@H]1C=C(Cl)Cl [cis-permethrin] :: false (0)
2) CC1(C)C(C=C(Cl)Cl)C1C(=O)OC(C#N)c1cccc(Oc2ccccc2)c1 (stereo not shown) :: false (0)
3) CC(=O)[C@H]1[C@H](C#N)C[C@H]2[C@@H]3CC=C4C[C@@H](O)CC[C@]4(C)[C@H]3CC[C@@]21C [PCN, 5-Pregnen-3β-ol-20-one-16α-carbonitrile, reference compound] :: true (1)
4) C=CCC1=C(C)C(OC(=O)C2C(C=C(C)C)C2(C)C)CC1=O (stereo not shown) :: false (0)
5) CC1(C)[C@H](C(=O)O[C@H](C#N)c2cccc(Oc3ccccc3)c2)[C@@H]1C=C(Br)Br :: true (1)
